System: T-47D breast
Experiment: NCI tumour cell line growth inhibition, 48 h
TGI reference

COMPOUND: COc1cccc2c(NNc3ccccc3)c3ccc([N+](=O)[O-])cc3nc12
TGI: > 100 µM
//
COMPOUND: Nc1cc2c3c(cccc3c1)C(=O)N(c1ccc(OCCN3CCCCC3)cc1)C2=O
TGI: 46.6 µM
//
COMPOUND: Cc1ccc2c(=O)cc(-c3cccc4ccccc34)[nH]c2n1
TGI: > 100 µM
//
COMPOUND: CC1(C)CCC2(C(=O)OC3OC(CO)C(O)C(O)C3O)CCC3(C)C(=CCC4C5(C)CCC(OC6OC(CO)C(O)C(O)C6O)C(C)(C)C5CCC43C)C2C1 (centres undefined)
TGI: 24.3 µM
